All figures here come from patent US7067268.

Assayed Target: these antibodies (P2L-1Ta, P2L-3Ta, P2L-2Ta and P2L-4Ta)
Test Name: competitive EIA against HRP-labeled 19P2 ligand (12-25); P2L-1Ta, P2L-3Ta, P2L-2Ta, P2L-4Ta (FIG. 9)
pIC50: −log10 of the molar value.
Quantity Measured: pIC50

Q: Find the recorded pIC50 belonging to SRTHRHSMEIRTPDINPAWYASRGIRPVGRX (C-terminal amide) [Human 19P2 ligand (1-31)] and report it.
Result: 7.30 to 8.52
